Test system: Bromus secalinus
TEST METHOD NOTES: Post-emergence test/greenhouse, % damage after three weeks
Format: in vivo
EXPERIMENTAL CONDITIONS: Bromus secalinus, post-emergence, 504 h, 4 g of ai/ha; read-out: Bromus secalinus observed
MEASUREMENT TYPE: pest or weed control at 4 g/ha (%)
One number for each entry, in %.

Completed entries (count: 4):
INSERT INTO assay_data (compound, experimental_target, endpoint_result) VALUES
  ('COC(=O)c1csc(C)c1S(=O)(=O)NC(=O)n1nc(OC)n(C)c1=O', 'Bromus secalinus', 70),
  ('CS(=O)(=O)c1cc(C(F)(F)F)ccc1C(=O)c1cnoc1C1CC1', 'Bromus secalinus', 0),
  ('COc1nc(C)nc(=NC(=O)NS(=O)(=O)c2ccccc2C(=O)O)[nH]1', 'Bromus secalinus', 0),
  ('COC(=O)c1ccccc1S(=O)(=O)NC(=O)N(C)c1nc(C)nc(OC)n1', 'Bromus secalinus', 0);

# next compound below
Look up pest or weed control at 4 g/ha: COC(=O)c1ccc(C(F)(F)F)nc1S(=O)(=O)NC(=O)Nc1nc(OC)cc(OC)n1.[Na] [flupyrsulfuron, sodium salt, reference compound]
0

* * *

System: Bromus secalinus
TEST METHOD NOTES: Post-emergence test/greenhouse, % damage after three weeks
Type: in vivo
EXPERIMENTAL CONDITIONS: Bromus secalinus, post-emergence, 504 h, 2 g of ai/ha; read-out: Bromus secalinus observed
Task for the reader: assign each of the following compounds its reported pest or weed control at 2 g/ha.

INSERT INTO measurements (compound, measurement_type, endpoint_result) VALUES
  ('CS(=O)(=O)c1cc(C(F)(F)F)ccc1C(=O)c1cnoc1C1CC1', 'pest or weed control at 2 g/ha', '0%');

Can you give me pest or weed control at 2 g/ha for all of these, one by one?
1. COc1nc(C)nc(=NC(=O)NS(=O)(=O)c2ccccc2C(=O)O)[nH]1
2. COC(=O)c1ccc(C(F)(F)F)nc1S(=O)(=O)NC(=O)Nc1nc(OC)cc(OC)n1.[Na] [flupyrsulfuron, sodium salt, reference compound]
3. COC(=O)c1csc(C)c1S(=O)(=O)NC(=O)n1nc(OC)n(C)c1=O

1. 0%
2. 0%
3. 70%

* * *

System: Cyperus esculentus
TEST METHOD NOTES: Post-emergence test/greenhouse, % damage after three weeks
Assay type: in vivo
EXPERIMENTAL CONDITIONS: 8 g of ai/ha
MEASUREMENT TYPE: Cyperus esculentus observed (%)
Answers are plain numbers, in %.

INSERT INTO assay_data (compound, measurement_type, result_units, endpoint_result) VALUES
  ('CCOC(=O)C(Cl)Cc1cc(-n2nc(C)n(C(F)F)c2=O)c(F)cc1Cl (stereo not shown) [carfentrazone-ethyl, reference compound]', 'Cyperus esculentus observed', '%', 30),
  ('COC(=O)c1ccccc1S(=O)(=O)NC(=O)N(C)c1nc(C)nc(OC)n1', 'Cyperus esculentus observed', '%', 0),
  ('COC(=O)c1ccc(CNS(C)(=O)=O)cc1S(=O)(=O)NC(=O)Nc1nc(OC)cc(OC)n1', 'Cyperus esculentus observed', '%', 70);

What measured Cyperus esculentus observed goes with COc1cc(OC)nc(NC(=O)NS(=O)(=O)c2cc(NC=O)ccc2C(=O)N(C)C)n1 ?
80

Attribution: patent US20120309622A1
